Listing: TGI of selected compounds
System: U251 CNS
Experiment: NCI tumour cell line growth inhibition, 48 h
Where a SMILES comes first, the peptide text is derived from it. The star is where a group is joined. Cbz = O=C(OCc1ccccc1)*

CC(=O)NNc1nc(-c2ccc([N+](=O)[O-])cc2)c(C#N)c(=O)n1C: 50 µM
CC(NC(=O)C(NC(=O)OCc1ccccc1)C(C)C)C(=O)NCC(=O)O (stereo not drawn) (Cbz-Val-Ala-Gly-OH; configuration not given here): > 100 µM
C=CCc1ccc(O)c(-c2ccc(O)c(CC=C)c2)c1: 31.8 µM

Query: Which TGI value is on record for CC1=C(/C=C/C(C)=C/C=C/C(C)=C/C(=O)OC2CC(n3cc(F)c(=O)[nH]c3=O)OC2CO)C(C)(C)CCC1 (centres undefined) ?
Response: 20 µM

###

System: SNB-19 CNS
Test: NCI tumour cell line growth inhibition, 48 h
PROPERTY MEASURED: TGI

Cn1cnnc1Sc1c([N+](=O)[O-])ncn1C: > 100 µM

Query: Give the measured TGI of CCOC(=O)[C@H](C)OC(=O)[C@@](C)(NC(=O)c1ccccc1C(=O)OC)[C@@H]1NC=C(C(=O)OC)CS1 .
Response: > 100 µM

Query: Request the reported TGI associated with O=C(CSc1c2ccccc2nc2ccccc12)Nc1ccccc1-c1ccccc1NC(=O)CSc1c2ccccc2nc2ccccc12
Response: > 61.7 µM

Query: Which value of TGI has been reported for CC(=O)OCC1OC(n2c(C)cc(C)c(C#N)c2=S)C(OC(C)=O)C(OC(C)=O)C1OC(C)=O (centres undefined) in the records?
Response: > 100 µM

Query: Field request: TGI | item: CC1(C)OC[C@@H]([C@H](O)C2C=CC(=O)S2)O1 (some centres undefined)
Response: > 100 µM

Query: GET /values?readout=TGI&item= CN(C)CCC(=O)C(=Cc1ccc(O)cc1)C(=O)CCN(C)C
Response: > 100 µM

Query: Look at this compound and give its reported TGI. COC(=O)NC(C(F)(F)F)(C(F)(F)F)P1(=O)OCCCO1
Response: 78.7 µM

Query: Param item = O=C(O)c1ccc(C(=O)O)c2c(C(=O)O)ccc(C(=O)O)c12 ; retrieve measured TGI.
Response: > 100 µM

Query: Given the entry O=[N+]([O-])c1cccc2ccc(N/N=C/c3ccccc3O)nc12 , report its measured TGI.
Response: > 100 µM

Query: What value of TGI has been recorded for this entry: COc1ccc(C2=C3SC=c4ccccc4=C3ON=C2c2ccccc2)cc1
Response: > 100 µM

Query: Report TGI for CCSC1=N/C(=C\c2ccc(N(C)C)cc2)C(Cl)=N1 please.
Response: > 100 µM

Query: Entry CC1C=CN(N(C)C)C2=C1C(=O)c1cnccc1C2=O (centres undefined) : reported TGI = ?
Response: 2.31 µM

Query: Record request: TGI value, item O=C(Nc1ccc([N+](=O)[O-])cc1[N+](=O)[O-])C(=O)C(C(=O)c1ccc2ccccc2c1)C1OC(=O)c2ccccc21 (centres undefined)
Response: 33 µM

Query: What measured TGI goes with O=C1c2ccccc2C(=O)c2c1nc1ccccc1c2-c1cncc(-c2c3c(nc4ccccc24)C(=O)c2ccccc2C3=O)c1 ?
Response: > 82.7 µM

Query: Suppose we examine the compound c1ccc2c(c1)SCCC2NC1=NCCO1 (centres undefined) ; what TGI value has been reported?
Response: > 100 µM

###

System: OVCAR-5 ovarian
Assay: NCI tumour cell line growth inhibition, 48 h; in the data active = GI50 below about 0.43 µM; inactive = the rest
Outcome (select one): yes (active), no (inactive)

COc1cccc2c1C(=O)c1c(O)c3c(c(O)c1C2=O)C[C@@](O)(/C(C)=N/NC(=O)c1ccc(Cl)cc1)C[C@@H]3OC1CC(N)C(O)C(C)O1 (stereo partly drawn): yes
CS(=O)(=O)Nc1cc(-c2ccc3ncnc(Nc4c(Cl)ccc5c4OCO5)c3c2)cnc1Cl: yes
C#Cc1nc(Nc2cc(C)[nH]n2)c2ccccc2n1: yes
CN(C)C(=S)Sc1ccc([N+](=O)[O-])cc1[N+](=O)[O-]: no

Query: # fetch the recorded call for O=C1c2cccc3cccc(c23)C(=O)N1CCCCCN1CCN(CCCCCOc2ccc(-c3nc4ccc(N5CCOCC5)cc4[nH]3)cc2)CC1 here
Response: no

Query: Per the assay record, what outcome was assigned to Cc1ccc2c(C3C(C#N)=C(N)Oc4cc5ccccc5cc43)cc(=O)oc2c1 (stereo not drawn) ?
Response: no

Query: Write down the call the test reported for this compound. Item: CC1(C)N=C(N)N=C(N)N1c1ccc(CCCCc2ccc(Cl)c(S(=O)(=O)F)c2)c(Cl)c1
Response: no

Query: Please state the recorded outcome for this compound: Cc1nc2cc(Nc3nc(Nc4ccc(F)cc4)nc(-c4cccs4)n3)ccc2n1Cc1ccccc1
Response: no

###

System: NCI-H23 lung
Assay: NCI tumour cell line growth inhibition, 48 h
PROPERTY MEASURED: TGI

CCOC(=O)c1c(-c2ccc(OC)cc2)c(C#N)c2c(C#N)c(N)nn2c1N: > 100 µM
Cn1cnnc1Sc1c([N+](=O)[O-])ncn1C: > 100 µM
O=C(Nc1ccc([N+](=O)[O-])cc1[N+](=O)[O-])C(=O)C(C(=O)c1ccc2ccccc2c1)C1OC(=O)c2ccccc21 (stereo unspecified): 26 µM
O=c1nc(N2CCNCC2)oc2cc(Cl)oc(=O)c12: 27 µM
Cn1cc(-c2csc(-c3c[nH]c4ccc(Br)cc34)n2)c2cnccc21: 8.79 µM
O=S(=O)(Nc1ccc(Cl)cc1Cl)c1ccc(-c2cnc(C3CC3)o2)cc1: 55.5 µM
CCCC(=O)N1CCN(c2ccc3c(c2)OC(C)O3)CC1 (stereo unspecified): > 100 µM
CCc1nc(N)nc(N)c1-c1ccc([N+](C)(C)C)cc1: > 100 µM
COC(=O)C(C(=O)Cc1ccccc1[N+](=O)[O-])C(=O)OC: > 100 µM
CC12CCC3c4ccc(O)cc4CCC3C1C/C(=N\O)C2O (stereo unspecified): > 100 µM

Query: # returns recorded TGI (system: NCI-H23 lung) for COc1ccc(OC)c(/C=C(/C#N)c2ccccc2)c1
Response: > 100 µM

###

# TGI values compiled below
Test system: RPMI-8226 leukemia
Assay: NCI tumour cell line growth inhibition, 48 h

Would you please look over these solved cases?
Nc1ccn(C2OC(CO)C(O)C2O)c(=O)n1 (stereo not drawn): > 500 µM
Cc1cccc2c1Sc1ccccc1C2NC(=O)CCN(C)C (stereo not drawn): > 100 µM
COC(=O)c1s/c(=N\C(=S)N(C)C)n(-c2ccc(Cl)cc2)c1C(=O)OC: > 100 µM
CCOC(=O)c1c(-c2ccc(OC)cc2)c(C#N)c2c(C#N)c(N)nn2c1N: > 100 µM
CC(C)=CC1CC(=[N+]=[N-])C(=O)C1(C)C (stereo not drawn): > 74.6 µM

Query: Hello, I am looking for reported TGI with RPMI-8226 leukemia for COc1ccc(C2=C(c3ccc(OC)cc3)C(=O)N3CCCC3C2)cc1 (stereo not drawn) . Could you help?
Response: > 100 µM

Query: Notebook: pull reported TGI for RPMI-8226 leukemia, entry COc1ccc(OC)c(/C=C(/C#N)c2ccccc2)c1
Response: 60.6 µM

Query: Value wanted: TGI (RPMI-8226 leukemia) of entry CC1(C)OC[C@@H]([C@H](O)C2C=CC(=O)S2)O1 (stereo partly drawn)
Response: 53.4 µM

Query: Recorded TGI for C=CCc1ccc(O)c(-c2ccc(O)c(CC=C)c2)c1 with RPMI-8226 leukemia, please?
Response: > 55.9 µM

Query: Missing value: TGI, RPMI-8226 leukemia, entry CS(=O)(=O)Nc1cc(-c2ccc3ncnc(Nc4c(Cl)ccc5c4OCO5)c3c2)cnc1Cl . Fill in?
Response: 0.566 µM

###

Tested on: 786-0 renal
Assay: NCI tumour cell line growth inhibition, 48 h
TGI: recorded values
Answer format: numeric, µM implied, no suffix.

Below, each entry is followed by its recorded TGI result.
CC(=O)NNc1nc(-c2ccc([N+](=O)[O-])cc2)c(C#N)c(=O)n1C: 47
CN(C)CCNC(=O)c1cccc2c(Nc3ccc(S(=O)(=O)N=C(N)N)cc3)c3ccccc3nc12: 60
Cc1ccc(Nc2oc(-c3ccccc3)nc2[P+](c2ccccc2)(c2ccccc2)c2ccccc2)cc1: 2.45

Query: So what does the record say about TGI for CSc1ccccc1C#C/C=C\C#Cc1ccccc1N ?
Response: 42.6

Query: Entry Cn1c(Nc2ccc(C(F)(F)F)cc2)nc2cc(Oc3ccnc(-c4ncc(C(F)(F)F)[nH]4)c3)ccc21 : reported TGI = ?
Response: 13.9

Query: Any idea what TGI was measured for COC(=O)/C=C\C(C#N)(C#N)N=Cc1cc(Br)cs1 ?
Response: 3.78

Query: Can you share its TGI? I mean this compound: O=C1CCC(=O)c2c1c(O)c1ccncc1c2O
Response: 29.1

Query: Need TGI, item COC(=O)c1ccc(-c2c(C#N)[n+](=O)c3cc(Cl)c(Cl)cc3n2[O-])cc1
Response: 35.6

Query: Requested read-out: TGI. Entry: COc1ccc(-c2nnc(N3CCN(C(=O)CN4CCN(c5ccccc5)CC4)CC3)nc2-c2ccc(OC)cc2)cc1
Response: 29.3
